assayedTarget: T1, human CXCR2 (human, UniProt P25025 1-360)
T1 construct: also called CXC chemokine receptor 2; hCXCR2
T1 sequence: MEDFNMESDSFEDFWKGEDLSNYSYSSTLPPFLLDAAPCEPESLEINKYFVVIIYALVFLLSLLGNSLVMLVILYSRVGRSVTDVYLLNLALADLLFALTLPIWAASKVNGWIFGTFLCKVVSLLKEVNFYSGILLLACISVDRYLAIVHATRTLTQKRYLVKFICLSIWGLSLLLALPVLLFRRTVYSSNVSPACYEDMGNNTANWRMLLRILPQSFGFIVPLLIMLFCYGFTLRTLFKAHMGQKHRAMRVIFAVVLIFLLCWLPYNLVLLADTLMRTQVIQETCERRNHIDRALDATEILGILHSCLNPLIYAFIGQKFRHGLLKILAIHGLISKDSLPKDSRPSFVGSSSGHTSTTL
methodNotes: flow cytometry, CXCR2-transfected Expi293F cells
Listed next: entries and their corresponding pEC50.
Hey, just a heads up that pEC50 is the negative log base 10 of the concentration in molar.

binder="BKO-4A8-104c (antibody, human IgG4 S228P, lambda, V domains shown, IgG4 S228P, lambda) VH: EVQLLESGGGLVQPGGSLRLSCAASGFTFSSSTQSWVRQPPGKGLEWVSAISGSGGSTYYADSVKGRFTISRDNSKNTLYLQMNSLRAEDTAVYYCAIQKGYWGQGILVTVSS VL: QSALTQPPSASGSPGQSVTISCIGTSSDVGGYNYVSWYQQHPGKAPKLMIYEVSKRPSGVPDRFSGSKSGNTASLTVSGLQAEDEADYYCSSYAGSNNFGVFGGGTKLTVLG" quantitykind=pEC50 readoutvalue=8.19

Proceed to the following item.
Ask: For BKO-4A8-105c (antibody, human IgG4 S228P, lambda, V domains shown, IgG4 S228P, lambda) VH: EVQLLESGGGLVQPGGSLRLSCAASGFTFSSSTQSWVRQPPGKGLEWVSAISGSGGSTYYADSVKGRFTISRDNSKNTLYLQMNSLRAEDTAVYYCAIQAGYWGQGILVTVSS VL: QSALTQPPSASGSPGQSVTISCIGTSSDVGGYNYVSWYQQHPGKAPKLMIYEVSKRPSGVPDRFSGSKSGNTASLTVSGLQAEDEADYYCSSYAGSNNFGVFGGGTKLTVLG , what is its reported pEC50?
Reply: 8.24
